target: human PCSK9 / human LDLR EGFa domain interaction (Homo sapiens); assay: TR-FRET assay of inhibition of the PCSK9-LDLR protein-protein interaction; conditions: 20 nM avitag-biotinylated human PCSK9, 20 nM his-tagged human LDLR EGFa domain, 2 hours, room temperature
Sequence (Q8NBP7 153-692): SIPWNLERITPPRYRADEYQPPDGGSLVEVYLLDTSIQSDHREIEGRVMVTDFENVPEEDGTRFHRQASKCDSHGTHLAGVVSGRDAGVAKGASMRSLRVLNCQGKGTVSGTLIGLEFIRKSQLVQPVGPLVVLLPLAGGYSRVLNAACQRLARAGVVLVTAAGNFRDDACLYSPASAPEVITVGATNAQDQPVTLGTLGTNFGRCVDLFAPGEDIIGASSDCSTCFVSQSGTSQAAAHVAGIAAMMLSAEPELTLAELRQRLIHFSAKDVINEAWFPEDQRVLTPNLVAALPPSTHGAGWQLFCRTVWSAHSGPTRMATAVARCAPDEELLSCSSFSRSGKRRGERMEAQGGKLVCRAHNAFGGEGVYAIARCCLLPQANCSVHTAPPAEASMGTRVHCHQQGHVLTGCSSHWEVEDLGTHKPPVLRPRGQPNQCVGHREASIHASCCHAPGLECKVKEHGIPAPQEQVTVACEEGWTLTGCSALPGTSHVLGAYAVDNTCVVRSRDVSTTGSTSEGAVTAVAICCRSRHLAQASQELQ
Sequence (Q8NBP7 31-152 partner limits assumed): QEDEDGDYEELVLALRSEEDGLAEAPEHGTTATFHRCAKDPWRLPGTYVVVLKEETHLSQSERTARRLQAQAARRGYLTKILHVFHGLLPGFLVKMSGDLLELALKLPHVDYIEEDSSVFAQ
pIC50: −log10 of the molar value. Numbered stars: 1 amine (or outer) side, 2 acyl side, 3 side chain; on linkers, the order of the positions; unused ones are H or OH. Bridge positions count the residues as written; N and C are the ends. Square brackets hold non-standard residues; d marks the D form. Peptide text beside a SMILES is read from it. X3 = O=C([C@@H]1C[C@@H](SCc2ccc(C[*:3])cc2)CN1[*:1])[*:2]; Trp(7-aza) = N[C@@H](Cc1c[nH]c2ncccc12)C(=O)O; NMeW = CN[C@@H](Cc1c[nH]c2ccccc12)C(=O)O; mXylylene = c1cc(C[*:1])cc(C[*:2])c1; Aad = N[C@@H](CCCC(=O)O)C(=O)O; Chg = N[C@H](C(=O)O)C1CCCCC1; Pen = CC(C)(S)[C@H](N)C(=O)O; Tle = CC(C)(C)[C@H](N)C(=O)O; αMeV = CC(C)[C@](C)(N)C(=O)O; Dpg = CCCC(N)(CCC)C(=O)O; Nva = CCC[C@H](N)C(=O)O; Aib = CC(C)(N)C(=O)O; Mpa = O=C(O)CCS
RECORDED METRIC: pIC50

compound="CCC[C@@H]1NC(=O)[C@H](Cc2c[nH]c3ncccc23)NC(=O)[C@H]([C@@H](C)O)NC(=O)[C@@H]2CCCN2C(=O)[C@H](Cc2ccc(O)cc2)NC(=O)[C@H](C(C)(C)C)NC(=O)CCSCc2cccc(c2)CSC[C@@H](C(N)=O)NC(=O)[C@H]([C@@H](C)O)NC(=O)[C@H](CCC)NC(=O)[C@H](Cc2ccc(O)cc2)NC(=O)[C@H](CCC(=O)O)NC1=O [Compound 155] ([Mpa][Tle]YPT[Trp(7-aza)][Nva]EY[Nva]TC-NH2; linker 1-12 via mXylylene)" assay_value="4.68 to 6.00"
compound="CCC[C@@H]1NC(=O)[C@H](Cc2c[nH]c3ncccc23)NC(=O)[C@H]([C@@H](C)O)NC(=O)[C@H](Cc2c[nH]cn2)NC(=O)[C@H](Cc2ccc(O)cc2)NC(=O)[C@H](C(C)(C)C)NC(=O)[C@@H](NC(C)=O)CSCc2cccc(c2)CSC[C@@H](C(N)=O)NC(=O)[C@H]([C@@H](C)O)NC(=O)[C@H](CCC)NC(=O)[C@H](Cc2ccc(O)cc2)NC(=O)[C@H](CCC(=O)O)NC1=O [Compound 235] (Ac-C[Tle]YHT[Trp(7-aza)][Nva]EY[Nva]TC-NH2; linker 1-12 via mXylylene)" assay_value="6.00 to 7.00"
compound="CC(=O)N[C@H]1CCCCNC(=O)CCC[C@@H](C(N)=O)NC(=O)[C@H]([C@@H](C)O)NC(=O)[C@](C)(C(C)C)NC(=O)[C@H](Cc2ccc(O)cc2)NC(=O)[C@H](C)NC(=O)C(C)(C)NC(=O)[C@H](Cc2c[nH]c3ncccc23)NC(=O)[C@H]([C@@H](C)O)NC(=O)[C@@H]2C[C@@H]3CN2C(=O)[C@H](Cc2ccc(O)cc2)NC(=O)[C@@H](NC1=O)C(C)(C)SCc1ccc(cc1)CS3 [Compound 349] (Ac-K[Pen]Y[X3]T[Trp(7-aza)][Aib]AY[αMeV]T[Aad]-NH2; lactam 1-12; thioether 2-4)" assay_value="7.00 to 9.00"
compound="CCC[C@@H]1NC(=O)[C@H](Cc2ccc(O)cc2)NC(=O)[C@H](CCC(=O)O)NC(=O)[C@H](CCC)NC(=O)[C@H](Cc2c[nH]c3ccccc23)N(C)C(=O)[C@H]([C@@H](C)O)NC(=O)[C@H](Cc2c[nH]cn2)NC(=O)[C@H](Cc2ccc(O)cc2)NC(=O)[C@H](C(C)(C)C)NC(=O)CCSCc2cccc(c2)CSC[C@@H](C(N)=O)NC(=O)[C@H]([C@@H](C)O)NC1=O [Compound 206] ([Mpa][Tle]YHT[NMeW][Nva]EY[Nva]TC-NH2; linker 1-12 via mXylylene)" assay_value="4.00 to 4.30"
compound="C[C@@H](O)[C@@H]1NC(=O)[C@H](C2CCCCC2)NC(=O)[C@H](Cc2c[nH]c3ncccc23)NC(=O)[C@H](Cc2c[nH]cn2)NC(=O)[C@H](CCC(=O)O)NC(=O)[C@H](Cc2c[nH]c3ncccc23)NC(=O)[C@H]([C@@H](C)O)NC(=O)[C@@H]2CCCN2C(=O)[C@H](Cc2ccc(O)cc2)NC(=O)[C@H](C(C)(C)C)NC(=O)CCSCc2cccc(c2)CSC[C@@H](C(N)=O)NC1=O [Compound 154] ([Mpa][Tle]YPT[Trp(7-aza)]EH[Trp(7-aza)][Chg]TC-NH2; linker 1-12 via mXylylene)" assay_value="6.00 to 7.00"
compound="CCCC1(CCC)NC(=O)[C@H](Cc2c[nH]c3ncccc23)NC(=O)[C@H]([C@@H](C)O)NC(=O)[C@@H]2CCCN2C(=O)[C@H](Cc2ccc(O)cc2)NC(=O)[C@H](C(C)(C)C)NC(=O)[C@@H](NC(C)=O)CSCc2cccc(c2)CSC[C@H](C(N)=O)NC(=O)[C@H]([C@@H](C)O)NC(=O)[C@](C)(C(C)C)NC(=O)[C@H](Cc2ccc(O)cc2)NC(=O)[C@H](C)NC1=O [Compound 188] (Ac-C[Tle]YPT[Trp(7-aza)][Dpg]AY[αMeV]T[dC]-NH2; linker 1-12 via mXylylene)" assay_value="4.68 to 6.00"
compound="CC(=O)N[C@H]1CSCc2cccc(c2)CSC[C@@H](C(N)=O)NC(=O)[C@H]([C@@H](C)O)NC(=O)C(C)(C)NC(=O)[C@H](Cc2ccc(O)cc2)NC(=O)[C@H](C)NC(=O)C(C)(C)NC(=O)[C@H](Cc2c[nH]c3ncccc23)NC(=O)[C@H]([C@@H](C)O)NC(=O)[C@@H]2CCCN2C(=O)[C@H](Cc2ccc(O)cc2)NC(=O)[C@H](C(C)(C)C)NC1=O [Compound 179] (Ac-C[Tle]YPT[Trp(7-aza)][Aib]AY[Aib]TC-NH2; linker 1-12 via mXylylene)" assay_value="4.30 to 4.68"
compound="CCC[C@@H]1NC(=O)[C@H](Cc2ccc(O)cc2)NC(=O)[C@H](C)NC(=O)[C@H](CCC)NC(=O)[C@H](Cc2c[nH]c3ncccc23)NC(=O)[C@H]([C@@H](C)O)NC(=O)[C@@H]2CCCN2C(=O)[C@H](Cc2ccc(O)cc2)NC(=O)[C@H](C(C)(C)C)NC(=O)CCSCc2cccc(c2)CSC[C@@H](C(N)=O)NC(=O)[C@H](C)NC1=O [Compound 172] ([Mpa][Tle]YPT[Trp(7-aza)][Nva]AY[Nva]AC-NH2; linker 1-12 via mXylylene)" assay_value="4.68 to 6.00"

* * *

target: PCSK9 (Homo sapiens, UniProt Q8NBP7); test: PCSK9 Alexa FRET Standard assay (displacement of AlexaFluor647 tagged cyclic peptide Reagent A); format: binding; conditions: 0.5 nM PCSK9, 20 nM AF cyclic peptide Reagent A
Sequence (Q8NBP7 153-692): as the sequence (Q8NBP7 153-692) above
pIC50: −log10 of the molar value. Numbered stars: 1 amine (or outer) side, 2 acyl side, 3 side chain; on linkers, the order of the positions; unused ones are H or OH. Bridge positions count the residues as written; N and C are the ends. Square brackets hold non-standard residues; d marks the D form. Peptide text beside a SMILES is read from it. Trp(7-aza) = N[C@@H](Cc1c[nH]c2ncccc12)C(=O)O; X1 = C[C@@](N[*:1])(C(=O)[*:2])c1ccccc1; Phe(4-F) = N[C@@H](Cc1ccc(F)cc1)C(=O)O; mXylylene = c1cc(C[*:1])cc(C[*:2])c1; Tle = CC(C)(C)[C@H](N)C(=O)O; αMeV = CC(C)[C@](C)(N)C(=O)O; Nva = CCC[C@H](N)C(=O)O; Mpa = O=C(O)CCS
Readings of pIC50 for the listed molecules
RECORDED METRIC: pIC50

molecule="CC(=O)N[C@H]1CSCc2cccc(c2)CSC[C@H](C(N)=O)NC(=O)[C@H]([C@@H](C)O)NC(=O)[C@](C)(C(C)C)NC(=O)[C@H](Cc2ccc(O)cc2)NC(=O)[C@H](C)NC(=O)[C@](C)(c2ccccc2)NC(=O)[C@H](Cc2c[nH]c3ncccc23)NC(=O)[C@H]([C@@H](C)O)NC(=O)[C@@H]2CCCN2C(=O)[C@H](Cc2ccc(O)cc2)NC(=O)[C@H](C(C)(C)C)NC1=O [Compound 190] (Ac-C[Tle]YPT[Trp(7-aza)][X1]AY[αMeV]T[dC]-NH2; linker 1-12 via mXylylene)" assay_value="4.68 to 6.00"
molecule="CCC[C@@H]1NC(=O)[C@H](Cc2c[nH]c3ncccc23)NC(=O)[C@H]([C@@H](C)O)NC(=O)[C@H](Cc2c[nH]cn2)NC(=O)[C@H](Cc2ccc(O)cc2)NC(=O)[C@H](C(C)(C)C)NC(=O)CCSCc2cccc(c2)CSC[C@@H](C(N)=O)NC(=O)[C@H]([C@@H](C)O)NC(=O)[C@H](CCC)NC(=O)[C@H](Cc2ccc(F)cc2)NC(=O)[C@H](CCC(=O)O)NC1=O [Compound 266] ([Mpa][Tle]YHT[Trp(7-aza)][Nva]E[Phe(4-F)][Nva]TC-NH2; linker 1-12 via mXylylene)" assay_value="4.68 to 6.00"
